Provide the reported pKi of each item.
Target: PI3Kγ (Homo sapiens)
Sequence (P48736 whole entry, species assumed): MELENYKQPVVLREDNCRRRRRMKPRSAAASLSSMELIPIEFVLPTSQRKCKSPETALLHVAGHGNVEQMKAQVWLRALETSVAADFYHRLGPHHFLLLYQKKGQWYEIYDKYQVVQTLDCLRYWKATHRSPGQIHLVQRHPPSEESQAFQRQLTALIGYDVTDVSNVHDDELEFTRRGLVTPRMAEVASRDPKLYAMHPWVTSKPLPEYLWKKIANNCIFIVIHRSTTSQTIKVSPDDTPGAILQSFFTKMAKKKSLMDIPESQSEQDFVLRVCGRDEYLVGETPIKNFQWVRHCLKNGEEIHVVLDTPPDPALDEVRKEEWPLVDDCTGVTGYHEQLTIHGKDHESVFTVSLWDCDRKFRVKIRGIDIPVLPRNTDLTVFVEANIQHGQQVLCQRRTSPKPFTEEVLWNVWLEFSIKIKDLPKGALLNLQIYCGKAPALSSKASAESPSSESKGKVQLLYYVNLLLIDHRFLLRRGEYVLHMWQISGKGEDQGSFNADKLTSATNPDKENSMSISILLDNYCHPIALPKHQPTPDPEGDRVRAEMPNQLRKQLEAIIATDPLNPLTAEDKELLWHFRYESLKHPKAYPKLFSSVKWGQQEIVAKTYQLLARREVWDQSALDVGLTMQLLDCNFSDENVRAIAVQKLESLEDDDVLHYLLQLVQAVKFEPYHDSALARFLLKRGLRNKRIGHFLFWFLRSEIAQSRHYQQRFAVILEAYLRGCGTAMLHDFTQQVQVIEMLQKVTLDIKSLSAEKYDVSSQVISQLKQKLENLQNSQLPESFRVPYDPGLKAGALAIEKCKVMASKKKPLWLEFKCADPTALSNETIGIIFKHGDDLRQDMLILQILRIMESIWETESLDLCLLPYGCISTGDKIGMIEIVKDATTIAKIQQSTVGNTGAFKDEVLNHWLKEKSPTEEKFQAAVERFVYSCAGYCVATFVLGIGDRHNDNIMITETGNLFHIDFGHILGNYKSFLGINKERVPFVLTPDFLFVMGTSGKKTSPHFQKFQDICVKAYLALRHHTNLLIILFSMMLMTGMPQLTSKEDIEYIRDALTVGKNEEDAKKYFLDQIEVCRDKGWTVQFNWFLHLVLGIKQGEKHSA
Assay: PI3K Inhibition Assay (33P-ATP, PI(4,5)P2 substrate, filter plate scintillation counting)
Type: biochemical
Conditions: Ki for PI3Kγ, 3 μM ATP, 30 μM PI(4,5)P2, 2 nM final enzyme, 30 min at 25° C.; competitive tight binding Ki fit
pKi: −log10 of the molar value.

**Q:** Look up pKi: COc1cncc(N2CCc3nc(NC(=O)CF)sc3C2)c1
**A:** > 7.00

**Q:** Look up pKi: COc1cc(N2CCc3nc(NC(=O)NCCCl)sc3C2)cnc1OC
**A:** > 7.00

====

Molecular target: UniProt:P48736
Assay: PI3K Inhibition Assay (33P-ATP, PI(4,5)P2 substrate, filter plate scintillation counting)
Assay type: biochemical
Conditions: 3 μM ATP, 30 μM PI(4,5)P2, 2 nM final enzyme, 30 min at 25° C.; competitive tight binding Ki fit; read-out: Ki for PI3Kγ
pKi: −log10 of the molar value.
measurement_label: pKi

**Q:** Look up pKi: COc1ncc(N2CCc3nc(NC(C)=O)sc3C2)nc1OC
**A:** > 7.70

**Q:** Look up pKi: CCCOCCNC(=O)Nc1nc2c(s1)CN(c1cnc(OC)c(OC)c1)CC2
**A:** > 7.00

**Q:** Look up pKi: COCCNC(=O)Nc1nc2c(s1)CN(c1cnc(Cl)c(OC)c1)CC2
**A:** > 7.00

**Q:** Look up pKi: COCC(=O)Nc1nc2c(s1)CN(c1cncc(C(F)(F)F)c1)CC2
**A:** > 7.00

**Q:** Look up pKi: COc1cc(N2CCc3nc(NC(=O)NCCc4cn(CCF)cn4)sc3C2)cnc1Cl
**A:** > 7.00

**Q:** Look up pKi: COc1cc(N2CCc3nc(NC(=O)CCNC(=O)c4ccccn4)sc3C2)cnc1OC
**A:** > 7.00

**Q:** Look up pKi: COc1cc(N2CCc3nc(NC(=O)CNC(=O)c4ccccn4)sc3C2)cnc1OC
**A:** > 7.00

**Q:** Look up pKi: COc1cc(N2CCc3nc(NC=O)sc3C2)cnc1OC
**A:** > 7.00

**Q:** Look up pKi: COCC(=O)Nc1nc2c(s1)CN(c1cncc(OC)c1)CC2
**A:** > 7.00

**Q:** Look up pKi: CCCOCCNC(=O)Nc1nc2c(s1)CN(c1cncc(C(F)(F)F)c1)CC2
**A:** > 7.70

**Q:** Look up pKi: COc1cc(N2CCc3nc(NC(=O)N4CC(OC)C4)sc3C2)cnc1Cl
**A:** > 7.00

**Q:** Look up pKi: CC(=O)Nc1nc2c(s1)CN(c1cncc(C(F)(F)F)c1)CC2
**A:** > 7.00

**Q:** Look up pKi: CCOC(=O)CCCNC(=O)Nc1nc2c(s1)CN(c1cnc(Cl)c(OC)c1)CC2
**A:** > 7.00

**Q:** Look up pKi: CCNC(=O)Nc1nc2c(s1)CN(c1cnc(OC)c(OC)c1)CC2
**A:** > 7.00

**Q:** Look up pKi: COc1cc(N2CCc3nc(NC(=O)N4CCCC4)sc3C2)cnc1Cl
**A:** > 7.00

**Q:** Look up pKi: COc1cc(N2CCc3nc(NC(=O)NCCCO)sc3C2)cnc1Cl
**A:** > 7.00

**Q:** Look up pKi: COc1cc(N2CCc3nc(NC(=O)CCNC(C)=O)sc3C2)cnc1Cl
**A:** > 7.00

**Q:** Look up pKi: CCOCCCNC(=O)Nc1nc2c(s1)CN(c1cnc(Cl)c(OC)c1)CC2
**A:** > 7.00

**Q:** Look up pKi: COc1cncc(N2CCc3nc(Nc4cnccn4)sc3C2)c1
**A:** > 7.00

**Q:** Look up pKi: COc1cc(N2CCc3nc(NC(=O)NCCCN(C)C)sc3C2)cnc1Cl
**A:** > 7.00

**Q:** Look up pKi: CC(=O)Nc1nc2c(s1)CN(c1cncc(C(F)(F)F)n1)CC2
**A:** > 7.00

**Q:** Look up pKi: CCNC(=O)Nc1nc2c(s1)CN(c1cncc(C(F)(F)F)c1)CC2
**A:** > 7.00

Reference source: patent US8524906B2
